System: Human immunodeficiency virus 1
Assay: Inhibitory concentration against 100I mutant was determined
Format: functional, organism-based
Details: Human immunodeficiency virus 1; read-out: IC50
RECORDED METRIC: pIC50
pIC50 here: minus log base 10 of the concentration, concentration in moles per litre.

Solved entries (count: 5):
Cc1ccc(Oc2nc(Nc3ccc(C#N)cc3)c(=O)n(C)c2C)c(C)c1    7.60
Cc1ccc(Oc2cn(Cc3ccccc3)c(=O)c(Nc3ccc(C#N)cc3)n2)c(C)c1    6.20
O=C1Nc2ccc(Cl)cc2[C@@](C#CC2CC2)(C(F)(F)F)O1    7.40
Cc1ccc(Oc2cn(C)c(=O)c(Nc3ccc(Cl)cc3)n2)c(C)c1    5.30
Cc1ccc(Oc2cn(C)c(=O)c(Nc3ccc(C#N)cc3)n2)c(C)c1    6.50

Lookup result for Cc1ccccc1Oc1nc(Nc2ccc(Cl)cc2)c(=O)n(C)c1C ; measured pIC50: 5.30

Where do the numbers come from? From ChEMBL document CHEMBL1145199.
